B1: Zinc finger MYM-type protein 2, residues 463 to 506; numbered along this chain, Q9UBW7 (parent)
chain: IMNCCEQCGEYLPSKGAGNNVLVIDGQQKRFCCQSCVSEYKQVG

Variants of: B1
Assay: abundance fitness (aPCA) (normalised: wild type 0, dead -1); higher = more abundant; growth selection in yeast, the domain comes from the species named
Details: Homo sapiens
Class field: derived from abundance fitness; ranges low bracket = under -0.4, middle bracket = from -0.4 up to -0.07, high bracket = -0.07 and over

Before answering, review these 3 worked examples.
sequence_variant=P13N category="low bracket"
sequence_variant=M2N category="high bracket"
sequence_variant=C5T category="low bracket"

Bin this entry: V23Y
middle bracket

Bin this entry: E6T
middle bracket

Bin this entry: K15G
high bracket

Bin this entry: Y40T
high bracket

Bin this entry: K29I
middle bracket

Bin this entry: Q34G
high bracket

Bin this entry: C5P
low bracket

Bin this entry: K41V
middle bracket

Bin this entry: C33E
high bracket

Bin this entry: C36E
middle bracket

Bin this entry: I1L
middle bracket

Bin this entry: C8L
low bracket

Bin this entry: E10I
low bracket

Bin this entry: Q28D
high bracket

Bin this entry: Y40D
high bracket

Bin this entry: L22N
middle bracket

Bin this entry: V43E
high bracket

Where do the numbers come from? From the Human Domainome abundance scans (Beltran et al. 2025).
